Source listed as patent US8247211B2.

- Test system: Escherichia coli
- TEST DESCRIPTION: In vitro antibacterial evaluation: minimum inhibitory concentration (MIC), broth dilution method
- Assay type: cell-based
- APPLIED CONDITIONS: 5×10^5 CFU/mL, 18 hours at 35° C.
ENDPOINT LABEL: MIC Escherichia coli (ATCC 25922) (µg/mL)
Reply with just the number (in µg/mL).

Q: Return MIC Escherichia coli (ATCC 25922) measured with Escherichia coli given this compound: Cc1ccc(CC2OCC3OC(OC4C(CO)OC(Oc5ccc(CC6NC(=O)C(C(C)c7ccccc7)NC(=O)CNC(=O)C(CO)NC(=O)C(C(O)C7CNC(=N)N7C7OC(CO)C(O)C(O)C7O)NC(=O)C(C(O)C7CNC(=N)N7)NC6=O)cc5)C(O)C4O)C(O)C(O)C3O2)cc1 (stereo not drawn)
Result: 32

Q: Entry CC(C)CC1OCC2OC(OC3C(CO)OC(Oc4ccc(CC5NC(=O)C(C(C)c6ccccc6)NC(=O)CNC(=O)C(CO)NC(=O)C(C(O)C6CNC(=N)N6C6OC(CO)C(O)C(O)C6O)NC(=O)C(C(O)C6CNC(=N)N6)NC5=O)cc4)C(O)C3O)C(O)C(O)C2O1 (stereo not drawn) please
Result: 64

Q: Entry CCCCCCCC1OCC2OC(OC3C(CO)OC(Oc4ccc(CC5NC(=O)C(C(C)c6ccccc6)NC(=O)CNC(=O)C(CO)NC(=O)C(C(O)C6CNC(=N)N6C6OC(CO)C(O)C(O)C6O)NC(=O)C(C(O)C6CNC(=N)N6)NC5=O)cc4)C(O)C3O)C(O)C(O)C2O1 (stereo not drawn) please
Result: 16
